Below: compounds with pIC50 recorded for Poly [ADP-ribose] polymerase 1 (Homo sapiens) in separate published works.
For clarity, pIC50 is expressed as the negative log10 of concentration in mol/L.

Worked examples, 2 compounds total:
CC1Cc2cccc(C(N)=O)c2O1 (racemic): 4.98
CN1CCN(Cc2ccc(C3Nc4cccc5c(=O)[nH]nc(c45)C3c3ccccc3)cc2)CC1 (centres undefined): 8.69

[Q] Requested read-out: pIC50. Entry: `CCCN1CCN(C(=O)c2cc(Cc3n[nH]c(=O)c4ccccc34)ccc2F)CC1`
[A] 8.22

[Q] Data request, read-out pIC50, for `CNCc1ccc(-c2nc3cncc4c3n2CCNC4=O)cc1`
[A] 7.89

[Q] // returns reported pIC50 for input O=c1[nH]nc2c3c(cccc13)NC(c1ccccc1)C2c1ccccc1 (centres undefined)
[A] 8.21

[Q] Record request: pIC50 value, item COc1ccc2c(c1)C(CC(=O)N[C@@H](CNC(=O)c1ccccc1N1CCC(=O)NC1=O)C(N)=O)CC2=O (some centres undefined)
[A] 7.55

[Q] Field request: pIC50 | item: `Cc1nn(C)c2[nH]c3c(c(=O)c12)CCC3`
[A] 5.15

[Q] Field request: pIC50 | item: CNC(=O)c1ccc(N2CCN(Cc3cc(C)c4c(c3)NC(=O)C(C)O4)CC2)c(Cl)c1 (racemic)
[A] 7.31

[Q] Form field: reported pIC50 of CC(Oc1ccccc1)C(=O)N1CCN(C(=O)c2cccc(CCOc3ccccc3C(N)=O)c2)CC1 (centres undefined)
[A] 6.70

[Q] Name the recorded pIC50 for `O=C(c1cc(Cc2c[nH]c(=O)c3cc(Cl)c(Cl)n23)ccc1F)N1CCN(c2ncc3ccccc3n2)CC1` .
[A] 9.00

[Q] # query: pIC50 of entry `O=c1[nH]c2c(nc3ccc(Br)cn32)c2ccccc12`
[A] 4.92

[Q] // query pIC50 value for entry `O=C(c1cc(Cc2n[nH]c(=O)c3ccccc23)cc(F)c1F)N1CCN(c2ncccn2)CC1`
[A] 8.54
